assay: NCI Yeast Anticancer Drug Screen. Data for the rad50 strain (AID 155);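 further: 0% = growth of vehicle-only cultures of the same strain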; conditions: S. cerevisiae rad50 strain growth inhibition; at 50.0 µM
The panel holds about 79,000 compounds, 15% with a hit somewhere; the sample as a whole holds those more often. Activity calls are given as the source filed them. No stated cut-off is given here; in the data, active means growth inhibition above about 70%; inactive means the rest.
Classes to choose from: TRUE = active, FALSE = inactive

Some solved entries appear below for comparison.
• Cc1nn(-c2nc(-c3ccccc3)cs2)c(C)c1C = FALSE
• CC(C)Nc1nc(N)nc(N)n1 = FALSE
• COc1ccc(C2N3CCCCC3[C@@H]3c4[nH]c5ccccc5c4CCN23)c(OC)c1 (stereo not given in full) = FALSE
• [N-]=[N+]=NC1(Cc2ccccc2)C(=O)Nc2ccccc2C1=O (stereo not given) = FALSE
• Cc1ccccc1C(=O)c1ccc2ccccc2c1 = FALSE
• O=C(CNC(=O)C(CCC(=O)OCc1ccccc1)NC(=O)OCc1ccccc1)NCC(=O)Oc1ccc([N+](=O)[O-])cc1 (stereo not given) = FALSE
• O=C1c2cccc3c([N+](=O)[O-])ccc(c23)C(=O)N1CCc1ccccn1 = FALSE
• c1ccc(Cn2nnnc2Nc2ccccc2)cc1 = FALSE
• Cc1c([N+](=O)[O-])ccn1C = FALSE
• S=c1sc2cscc2s1 = FALSE

Please share the test call associated with COc1ccc2c(ccc[n+]2CC(=O)c2ccc(SC)cc2)c1 . FALSE

Then what about the compound COc1ccccc1C(=O)N/N=C/c1ccc(O)cc1 ? FALSE

Entry CC(=O)OCCc1nnnn1C please FALSE

# repeat for CC(C)C(Br)CCC1=CCC(Br)(Br)C1 (stereo not given) TRUE

Then this compound: CC(C)(C)c1onc2c1C(=O)c1ccccc1-2 FALSE

What would you report for O=[N+]([O-])c1ccc(N=C/C=C\Nc2ccc([N+](=O)[O-])cc2)cc1 ? FALSE

And then CN(C)CCNc1nnc(NCCN(C)C)c2cc3ccccc3cc12 , what is it? FALSE

Same thing, different compound: CCC(=O)c1c(NOC2OCC(OC(C)=O)C(OC(C)=O)C2OC(C)=O)nc(OC)n(C)c1=O (stereo not given) FALSE

Next: O=[N+]([O-])c1ccc2c(c1)/C(=N/O)CCC2 FALSE

// repeat for Cc1csc(C)[n+]1CC(=O)c1ccccc1 and report FALSE

---

The compounds listed here are annotated with their growth inhibition.
assay: NCI Yeast Anticancer Drug Screen. Data for the rad50 strain (AID 155);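 further: 0% = growth of vehicle-only cultures of the same strain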; conditions: S. cerevisiae rad50 strain growth inhibition; at 50.0 µM; active compounds read high
The panel holds about 79,000 compounds, 15% with a hit somewhere; the sample as a whole holds those more often.
Give the value in % but do not write % after it.

Known growth inhibition results, listed for orientation:
- C(/C=C\c1ccccc1)=Nc1ccccc1: 8
- COc1ccc(-c2nc3ccccc3[nH]2)cc1: 16.4
- CCCCCCCCn1nnnc1N: -1.1
- C(#CC[P+](c1ccccc1)(c1ccccc1)c1ccccc1)C[P+](c1ccccc1)(c1ccccc1)c1ccccc1: -24.1
- CSc1ccc(NC(=O)Nc2cc(C)c(C)cc2C)cc1: 16.6

Param item = N#Cc1cccc(Br)c1 ; retrieve measured growth inhibition. -11.9

And for c1cnc2[nH]cnc2n1 ? 2.3

---

test: NCI Yeast Anticancer Drug Screen. Data for the sgs1 mgt1 strain (AID 161);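 further: 0% = growth of cultures given vehicle only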; settings: S. cerevisiae sgs1 mgt1 strain, at 50.0 µM, active compounds read high
About 79,000 compounds went through this panel and 15% of them were active in at least one assay; those are over-represented in the sample as a whole.
measurement kind: growth inhibition (%)
Supply the numeric figure in %, leaving out any unit text.

// below: answered compounds
* CCOC(=O)/C(C#N)=C\Nc1ccc(C)cc1 | -7.95
* CC(C)(O)C12CC3CC(CC(C3)C1)C2 | 8.35
* CCNCCNC(=O)c1ccc(I)cc1 | -4.2

What measured growth inhibition goes with CCOC(=O)C(Cc1cc(N)c(O)c(N)c1)NC(C)=O (stereo unspecified) ? -1.5

Another compound: N#CC(=C1c2ccccc2-c2ccccc21)c1ccccc1 -2.35

And for CCOP(=O)(OCC)C1=C(P(=O)(OCC)OCC)C(F)(F)C1(F)F ? -6.7

Ok, now O=C(O)C(CSC(c1ccccc1)(c1ccccc1)c1ccccc1)Nc1ccccc1[N+](=O)[O-] (stereo unspecified) 99.4

Cc1nc2ccccc2nc1C1=C(O)c2ccccc2CC1=O ? 10.1

Quick one: CCN(CC)CCC(=O)c1ccc(Oc2ccc(Cl)cc2)cc1 99

Also check Nc1ccc(S(=O)(=O)Nc2nc3ccccc3nc2Nc2ccc(S(N)(=O)=O)cc2)cc1 -13.8

Next compound: COC(=O)NS(=O)(=O)C1=Cc2cccc3cccc1c23 9.25

Also NC(=O)C1C[C@@H](O)CN1C(=O)c1ccc2c(c1)OCO2 (stereo partly specified) ? -24.6

Try CCCC(C)(C#N)c1ccc(OC)cc1 (stereo unspecified) next. 31.6

Request: Cn1c(=O)[nH]nc(Br)c1=O -9

Please give the result for N=c1nc(N)ss1 too. 16.4

Again, but for Cc1ccc(C2C(Cl)C(=O)N2NC(=O)c2ccc(N)cc2)cc1 (stereo unspecified) -61.1

---

experiment: NCI Yeast Anticancer Drug Screen. Data for the bub3 strain (AID 167); details: S. cerevisiae bub3 mutant strain, at 50.0 µM, active compounds read high
The panel holds about 79,000 compounds, 15% with a hit somewhere; the sample as a whole holds those more often.
measurement kind: growth inhibition (%)
Express the result in % but write the number alone.

Below, each entry is followed by its recorded growth inhibition result.
- CCOC(=O)/C=C(\C)c1ccc(Cl)cc1: -10.1
- CCOC(=O)C1=C(C)Oc2cc3c(cc2C1c1cc(OC)c(O)c(OC)c1)OCO3 (configuration not stated): 27.4
- O=C1/C(=C\c2ccccc2)C2C3CCC(C3)C2/C1=C\c1ccccc1 (configuration not stated): 11.1
- COc1cc(/C=C/C(=N\NC(N)=S)c2sc(NNC(C)=O)nc2C)ccc1O: 24.6

Please report the recorded growth inhibition for Nc1nc2c(N)cc(C(F)(F)F)cc2nc1-c1ccccc1 . -6.25

Moving on to the next molecule: CN1CCN(C(=S)N(C(=O)c2ccc(Cl)cc2)C2CCCCC2)CC1 -66.9

Further, for CCOc1ccc(Nc2nc(N)nc(N)c2N)cc1 ? -20.4

Also need O=C(NCCNC(=O)c1cccc([N+](=O)[O-])c1O)c1cccc([N+](=O)[O-])c1O , thanks. -3.2

One more molecule: Cc1ccc(C(=O)NC2CCCCC2)cc1N=NN(C)C 9.45

Field entry: CC1(C)CNCC2(C)OCCCOC3(C)CNCC(C)(C)NC(=O)C(C)(CNCC(C)(C)NC3=O)OCCCOC(C)(CNCC(C)(C)NC2=O)C(=O)N1 -3.05

Also check CCCC(=O)Oc1ccc(Cl)cc1 1.45

Input COc1ccc(N(C)CN(C)c2nc(N(C)C)nc(N(C)C)n2)cc1 -60.8

Field entry: CSC(=N\N=C(/C)c1ccc(Br)cc1)/N=C/N(C)C 28.1

---

assay: NCI Yeast Anticancer Drug Screen. Data for the mlh1 rad18 strain (AID 175); conditions: S. cerevisiae mlh1 rad18 strain growth inhibition; at 50.0 µM; active compounds read high
Compounds without any hit were thinned out: in the full panel of roughly 79,000, 15% have a hit.
measurement kind: growth inhibition (%)
The reply should be a number in %, with the unit left off.

Some entries whose results are on file:
* O=C1c2ccc3c([nH]c4ccccc43)c2C(=O)N1c1ccccc1 | 7.35
* COc1ccc(C2=NOC(c3ccc(OC)cc3)C2)cc1 (stereo not given) | 9.55
* Cn1ncc2c(=O)[nH]c(-c3ccccc3)nc21 | -6.3

Sample O=C(CC(c1ccccc1)C1CCCC1=O)c1ccccc1 (stereo not given) — what was its growth inhibition? 17.1

One more compound: C[N+]1(C)C2C=CCC1CSC2 (stereo not given) 12.8

Now the same for CC(=O)OCC(=O)[C@@]1(O)CC[C@H]2[C@@H]3C[C@H](C)C4=CC(=O)C=C[C@]4(C)[C@@]3(Br)[C@@H](O)C[C@@]21C -9.1

Same question for Oc1ccc(C=Nc2ccccc2)c(O)c1O please. 6.2

Repeat with CSc1cc(Cl)c(C)cc1S(=O)(=O)NC(=O)NNc1ccc(Cl)cc1 51.6

Now consider CC(SC(=S)SC(C)C(=O)O)C(=O)O (stereo not given) . 15.3

Then this compound: N#Cc1nc(CC(=O)c2ccncc2)c(CC(=O)c2ccncc2)nc1C#N 53.1

Same question, CN(CCc1ccccn1)c1ccc2c(c1)C(=O)c1ccccc1-2 this time 9.85

And then C=CCN(CC=C)CNC(C)=O , what is it? -10.8

Queued: O=S1(=O)c2ccccc2NC(c2ccc3ccccc3c2)CC1c1ccccc1F (stereo not given) -14.2

Param item: CCOC(=O)Oc1ccc2[nH]c3c(C)cc(N)c(C)c3c2c1 -11.1

Also check NCC(=O)N1CCCCC1 7.7

Please give the result for CCOC(=O)/C=C(\C)c1ccc(OC)cc1 too. 11.8

Cool, now CC(=O)O[C@H]1CSC[C@@H](OC(C)=O)C1[N+](=O)[O-] (stereo not given in full) 47.1

Note, next up: COc1ccc(Br)cc1/C=N\NC(=O)c1ccccc1N(C)C -4.25

Similarly, CCC[C@@H]1C[C@@H](OC(=S)SC)C[C@H]2CCC(=O)N12 ? -16.6

Where these numbers come from: PubChem BioAssay (NCI)
